Experiment: antimalarial activity against Dd2 strain (AID 2302);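 also: 0% = DMSO untreated growth and 100% = chloroquine plus artemisinin killed control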
Details: P. falciparum Dd2 in RBCs, LDH growth readout, 72 h; at 2 µM; hits give high values
Quantity measured: growth inhibition (%)
Numeric answer only, unit % assumed.

Query growth inhibition for Oc1ccc(CCCNc2nc(NCc3cccc4ccccc34)nc(NC3CCNCC3)n2)cc1
-3

Query growth inhibition for O=C(Nc1cccc(-c2cccc(-c3nc4ccc(F)cc4[nH]3)c2)c1)Nc1ccc2c(c1)OCO2
49

Query growth inhibition for Cc1noc(C)c1-c1cccc(CNCc2cccc(-c3cccc(-c4nc5c(C)cccc5[nH]4)c3)c2)c1
66

Query growth inhibition for Cc1cc(-c2ccc3c(c2)CCN(CCC2CCC(NC(=O)/C=C/c4ccc(F)cc4)CC2)CC3)on1 (stereo not drawn)
47

Query growth inhibition for COc1ccc2[nH]c3ccccc3c(=O)c2c1
75

Query growth inhibition for CC(C)(C)c1cc(NC(=O)c2ccc(Cl)c([N+](=O)[O-])c2)cc(C(C)(C)C)c1
7

Query growth inhibition for COc1cc(OC)c2c(C)cc(NCCCN3CCOCC3)nc2c1
3

Query growth inhibition for CSc1ccc(CN2CCC(NC(=O)c3ccc(-c4ccc(N(C)C)cc4)s3)CC2)cc1
26

Query growth inhibition for CCc1c(C)nc(-n2nc(C)cc2NC(=O)CCc2ccccc2)[nH]c1=O
97

Query growth inhibition for CNC(=O)NC1=NC(C)(C)N(OCc2ccc(Cl)c(Cl)c2)C(NC(=O)NC)=N1
-3

Query growth inhibition for COc1ccccc1CNc1ncc(-c2ccsc2)c(-c2nccs2)n1
84

Query growth inhibition for COc1cc2nc(N3CCC(CNC(=O)c4ccc(-c5ccc(Cl)cc5)cc4)CC3)nc(N)c2cc1OC
101

Query growth inhibition for CCOC(=O)c1c(C)n(-c2ccccc2)c2ccc(O)cc12
87

Query growth inhibition for O=S(=O)(NC1CCN(c2ccnc3cc(Cl)ccc23)C1)c1cccc(F)c1 (stereo not drawn)
88

Query growth inhibition for Cc1cc(Cl)c(S(=O)(=O)N2CCc3ccccc32)cc1OCC(=O)NC1CCCCC1
93

Query growth inhibition for CC(C)CCN1CCC(Oc2ccc(NC(=O)c3cccs3)cc2Cl)CC1
96

Query growth inhibition for Cc1c(Br)cc2[nH]c(-c3ccc(C(=O)NC4CCN(Cc5ccccc5)CC4)cc3)nc2c1C
98

Query growth inhibition for CN(C)c1ccc(CN2CCC(NC(=O)c3ccc(-c4cccc(C(F)(F)F)c4)s3)CC2)cc1
40

* * *

Experiment: antimalarial activity against Dd2 strain (AID 2302);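 also: 0% = DMSO untreated growth and 100% = chloroquine plus artemisinin killed control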
Settings: P. falciparum Dd2 in RBCs, LDH growth readout, 72 h; at 2 µM
Activity calls are given as the source filed them.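 The calls were made as follows: active = growth inhibition above 50% at the single 2 µM test dose, taken to imply half-maximal potency below 2 µM; inactive = the rest.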
In this exercise, the only acceptable responses are active, inactive

In this assay, the call recorded for O=C(/C=C/c1cccc(Cl)c1)NCCCCCN1CCC(c2c[nH]c3ccccc23)CC1 was what?
inactive

In this assay, the call recorded for O=C(NCCc1ccccc1F)c1ccc(N2CCN(c3ccncc3)CC2)cn1 was what?
inactive

In this assay, the call recorded for COc1cc(CNC2Cc3ccccc3C2)ccc1Oc1ccc2nc[nH]c2c1 was what?
active

In this assay, the call recorded for O=C(NCC1CCC(CNCCCc2ccccc2)CC1)Nc1ccc(Cl)c(Cl)c1 (stereo unspecified) was what?
inactive

In this assay, the call recorded for CC(Sc1n[nH]c(-c2cccs2)n1)C(=O)c1c[nH]c2ccccc12 (stereo unspecified) was what?
active

In this assay, the call recorded for Fc1ccc([C@H]2N=C(SCCSC3=N[C@H](c4ccc(F)cc4)[C@H](c4ccc(F)cc4)N3)N[C@H]2c2ccc(F)cc2)cc1 was what?
active

* * *

Provide the reported growth inhibition of each item.
Assay: antimalarial activity against Dd2 strain (AID 2302);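 also: 0% = DMSO untreated growth and 100% = chloroquine plus artemisinin killed control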
Details: P. falciparum Dd2 in RBCs, LDH growth readout, 72 h; at 2 µM; hits give high values
Numeric answer only, unit % assumed.

Query growth inhibition for CC(C)CCNC(=O)C1Cc2c([nH]c3cc(Br)ccc23)C2(CCN(Cc3ccccc3)CC2)N1 (configuration not stated)
45

Query growth inhibition for Cc1cc(NC(=O)Nc2ccc(Cl)cc2F)c2ccccc2n1
71

Query growth inhibition for O=C(Nc1ccc(Cl)c(C(F)(F)F)c1)c1ccc(C(=O)Nc2ccc(Cl)c(C(F)(F)F)c2)cc1
27

Query growth inhibition for CN1CCCN(c2ccnc3cc4c(cc23)N(C(=O)c2ccc(C(F)(F)F)cc2)CC4)CC1
63

Query growth inhibition for COc1ccc(C(=O)C2CCN(CCCCNC(=O)c3ccc(NC(=O)c4cc(Cl)cc(Cl)c4)cc3)CC2)cc1
84

Query growth inhibition for CN1CCN(c2ccnc3ccc(NC(=O)Nc4ccc5c(c4)CCC5=O)cc23)CC1
67

Query growth inhibition for CCOC(=O)NC1=NC(C)(C)N(OCc2ccc(Cl)c(Cl)c2)C(N)=N1
90

* * *

Biological target: L-lactate dehydrogenase (Plasmodium falciparum (isolate CDC / Honduras)) (UniProt Q27743)
Sequence (Q27743 whole entry, looked up): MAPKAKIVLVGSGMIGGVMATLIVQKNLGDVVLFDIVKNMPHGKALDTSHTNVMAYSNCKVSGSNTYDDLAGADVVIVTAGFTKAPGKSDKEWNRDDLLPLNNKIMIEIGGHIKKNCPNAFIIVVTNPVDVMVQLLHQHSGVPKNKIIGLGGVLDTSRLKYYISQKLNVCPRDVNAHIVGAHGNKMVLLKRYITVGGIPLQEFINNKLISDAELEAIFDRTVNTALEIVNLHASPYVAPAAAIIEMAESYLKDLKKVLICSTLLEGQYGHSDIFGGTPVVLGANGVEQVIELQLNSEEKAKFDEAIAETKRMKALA
Assay: PfLDH activity inhibition – cell lysate, 3D7 strain, counter-screen for P. falciparum growth inhibition project (AID 2304);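 also: 0% = vehicle and 100% = reference inhibitor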
Settings: P. falciparum 3D7 crude extract, LDH APAD/NBT absorbance; at 2 µM; hits give high values
Quantity measured: inhibition (%)
Numeric answer only, unit % assumed.

Query inhibition for COC(=O)c1ccc2[nH]cc(C3CCN(CCC4CCN(C(=O)/C=C/c5ccc(Cl)c(Cl)c5)CC4)CC3)c2c1
1

Query inhibition for CCc1ccc(NC(=O)c2cccc(CN3CCCN(CC4CCCCC4)CC3)c2)cc1
4

Query inhibition for COc1ccc2nccc([C@@H](O)CN3CCC(NCc4cc5cc(C)ccc5s4)CC3)c2c1
3

Query inhibition for NC(=O)c1cccc(Nc2nccc(Nc3ccc(Oc4cccc(Cl)c4)c(Cl)c3)n2)c1
1

Query inhibition for COc1ccc2nccc(N3CCC(CCNCc4ccc5c(n4)NC(=O)CO5)CC3)c2c1
-1

Query inhibition for COc1ccccc1-n1ccnc1SCC(=O)Nc1cc(C(F)(F)F)ccc1Cl
2

Query inhibition for O=C(Nc1ccc(Cl)cn1)c1sc2ccccc2c1O
-3

Query inhibition for COc1ccc(CCNCCCCCCNCCc2ccc(Cl)c3ccccc23)cc1OC
6

Query inhibition for CNCCNCc1cccc(-c2ccc(-c3nc4c(C)cccc4[nH]3)cc2)c1
-1

Query inhibition for CCN1CCC(N(Cc2ccc(-c3ccc(C(F)(F)F)cc3)cc2)C(=O)Cn2c(SCc3cccc(F)c3F)cc(=O)c3ccccc32)C1 (centres undefined)
5

Query inhibition for COc1cc(CNCCCCCCNCc2cc(OC)c(OC)c3ccccc23)c2ccccc2c1OC
-1

Query inhibition for CN1CCCN(c2ccnc3cc4c(cc23)N(C(=O)c2ccc(Cl)cc2)CC4)CC1
4

Query inhibition for COc1cccc(NC(=O)Nc2c(-c3cccc(C(F)(F)F)c3)c(C(F)(F)F)nn2C)c1
7

Query inhibition for COc1cc(Cc2cnc(N)nc2N)cc(OCCCCC2SC(=O)NC2=O)c1OC (centres undefined)
7

* * *

Target: L-lactate dehydrogenase (Plasmodium falciparum (isolate CDC / Honduras)) (UniProt Q27743)
Assay: PfLDH activity inhibition – cell lysate, 3D7 strain, counter-screen for P. falciparum growth inhibition project (AID 2304);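 also: 0% = vehicle and 100% = reference inhibitor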
Settings: P. falciparum 3D7 crude extract, LDH APAD/NBT absorbance; at 2 µM; hits give high values
Quantity measured: inhibition (%)
Numeric answer only, unit % assumed.

Lab note: record inhibition of CN1CCC(N2CCN(Cc3ccc(-c4ccc(-c5nc6ccc(F)cc6[nH]5)s4)cc3)CC2)CC1 tested on L-lactate dehydrogenase (Plasmodium falciparum (isolate CDC / Honduras)) (UniProt Q27743).
3

Lab note: record inhibition of CCCN(Cc1nnc(-c2cccs2)o1)C(=O)CSc1nnnn1-c1ccc(C)c(C)c1 tested on L-lactate dehydrogenase (Plasmodium falciparum (isolate CDC / Honduras)) (UniProt Q27743).
0

Lab note: record inhibition of NC1=NC2(CCCCC2)N(Cc2ccc(Cl)c(Cl)c2)C(N)=N1 tested on L-lactate dehydrogenase (Plasmodium falciparum (isolate CDC / Honduras)) (UniProt Q27743).
-3

* * *

Molecular target: L-lactate dehydrogenase (Plasmodium falciparum (isolate CDC / Honduras))
Test: PfLDH activity inhibition – cell lysate, 3D7 strain, counter-screen for P. falciparum growth inhibition project (AID 2304);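 also: 0% = vehicle and 100% = reference inhibitor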
Settings: P. falciparum 3D7 crude extract, LDH APAD/NBT absorbance; at 2 µM; hits give high values
Quantity measured: inhibition (%)
Numeric answer only, unit % assumed.

Query inhibition for O=C(Nc1ccc(Cn2ncc(N3CCCNCC3)c(Cl)c2=O)cc1)Nc1cccc(C(F)(F)F)c1
0

Query inhibition for Nc1c(Cl)cc(C(O)CNCCCCCCOCCc2ccc(O)cc2)cc1Cl (configuration not stated)
-3

Query inhibition for O=C(/C=C/c1ccc(Cl)c(Cl)c1)N1CCN(C(=O)Nc2ccc(F)c(Cl)c2)CC1
-6

Query inhibition for CC(C)C[C@H](NC(=O)c1cc2ccccc2s1)C(=O)N[C@H]1CCN(Cc2ccc(I)c(OC3CCN(C)C3)c2)C1 (some centres not stated)
4

Query inhibition for Cc1[nH]nc2cc(Nc3ccnc(Nc4ccc(CN5CCOCC5)cc4)n3)ccc12
-4

Query inhibition for COc1cc2c(cc1N1CCN(C)CC1)N(C(=O)Nc1ccc(-c3ccncc3)c(Cl)c1Cl)CC2
-6

Query inhibition for CN1CCN(c2ccnc3ccc(NC(=O)Nc4ccc(Br)cc4)cc23)CC1
-5
